Origin of values: the supplement of paper PMC10567573

B1: MMP1 (parent)
chain: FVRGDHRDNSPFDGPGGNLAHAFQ

- Variants of: B1
- testDetails: protein stability index of a GFP-peptide fusion (GPS, HEK-293T) (PSI 1-6); higher = more stable;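 also: lentivirally expressed fusions sorted by FACS into six bins by GFP to DsRed ratio, PSI derived from sequencing read proportions per bin multiplied by bin number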
- setupConditions: c terminus: a fixed tail appended
readout: protein stability index
Write the value as a bare number.

Example cases with answers are listed next.
Documented protein stability index of DVRGDHRDNSPFDGPGGNLAHAFQ [F1D] : 4.41

What the record says about FVRGDHCDNSPFDGPGGNLAHAFQ [R7C] : protein stability index is 1.82

Sure, the documented protein stability index for FVRGDHRDNSPFRGPGGNLAHAFQ [D13R] is 1.48

Kindly note the recorded protein stability index for FVRVDHRDNSPFDGPGGNLAHAFQ [G4V] , which is 1.94

New cases:
protein stability index measured on FVRGDHRDNSDFDGPGGNLAHAFQ [P11D] = 2.79
